system: HL-60; experiment: Cytotoxicity against human HL60 cells by MTT assay; assay type: functional, cell-based
pIC50: −log10 of the molar value.
Documented pIC50 across a set of molecules

>  <molecule>
COc1cccc2c1C(=O)c1c(O)c3c(c(O)c1C2=O)C[C@@](O)(C(=O)CO)C[C@@H]3O[C@H]1C[C@H](N)[C@H](O)[C@H](C)O1 [DOXORUBICIN]

>  <pIC50>
7.51

$$$$
>  <molecule>
Cc1cc(=O)cc2c3c1C(=O)[C@@H]1[C@H]4OC(=O)[C@](CC2)([C@H](C)[C@H]4O)[C@H]31

>  <pIC50>
6.11

$$$$
